# Tested on: Hela
# Experiment notes: In vitro cell assay (Cell Titer Glo), Hela
# Type: cell-based, Human
# Stated conditions: Homo sapiens, HeLa, 144 h; Table 2; 6 days exposure
# Procedure: In vitro cell assay is performed in a 96 well micro titer plate. Human tumor cell lines Hela, A549, MCF-7, HCC-1954 and SK-BR-3 are obtained from ATCC (American Type Culture Collection). The cells were harvested respectively during the logarithmic growth period and counted with hemocytometer. […] To each well was added 10 μL, of DMSO diluted compound (10×). For the sentinel base T0 plate, to each well was added 100 μL Cell Titer Gloand the luminescence signals with Envision reading were recorded. […]
pIC50: −log10 of the molar value. Numbered stars: 1 amine (or outer) side, 2 acyl side, 3 side chain; on linkers, the order of the positions; unused ones are H or OH. Square brackets hold non-standard residues; d marks the D form. Peptide text beside a SMILES is read from it. * marks the point of attachment. Butanoyl(3R-OMe,4S-NMe,4-Cy) = CO[C@H](CC(=O)[*:2])[C@H](C1CCCCC1)N(C)[*:1]; Dolaproine = CO[C@@H]([C@@H]1CCCN1)[C@@H](C)C(=O)O; X2 = CO[C@H](CC(=O)[*:2])[C@H](C1CCCC1)N(C)[*:1]; Aib = CC(C)(N)C(=O)O; OtBu = CC(C)(C)O*
Test readout: pIC50

>  <Compound>
CO[C@H]([C@@H](C)C(=O)N[C@@H](Cc1ccccc1)c1nccs1)[C@@H]1CCCN1C(=O)C[C@@H](OC)[C@H](C1CCCCC1)N(C)C(=O)[C@@H](NC(=O)C(C)(C)N)C(C)C

>  <Reported value>
9.24

$$$$
>  <Compound>
CO[C@H]([C@@H](C)C(=O)N[C@@H](Cc1ccccc1)C(=O)OC(C)(C)C)[C@@H]1CCCN1C(=O)C[C@@H](OC)[C@H](C1CCCCC1)N(C)C(=O)[C@@H](NC(=O)C(C)(C)N)C(C)C [Compound 22] (H-[Aib]V[Butanoyl(3R-OMe,4S-NMe,4-Cy)][Dolaproine]F-OtBu)

>  <Reported value>
9.25

$$$$
>  <Compound>
CO[C@H]([C@@H](C)C(=O)N[C@H](C)[C@@H](O)c1ccccc1)[C@@H]1CCCN1C(=O)C[C@@H](OC)[C@H](C1CCCC1)N(C)C(=O)[C@@H](NC(=O)C(C)(C)N)C(C)C

>  <Reported value>
8.81

$$$$
>  <Compound>
CO[C@H]([C@@H](C)C(=O)N[C@@H](Cc1ccccc1)C(=O)OC(C)(C)C)[C@@H]1CCCN1C(=O)C[C@@H](OC)[C@H](C1CCCC1)N(C)C(=O)[C@@H](NC(=O)C(C)(C)N)C(C)C [Compound 21] (H-[Aib]V[X2][Dolaproine]F-OtBu)

>  <Reported value>
9.25

$$$$
>  <Compound>
CO[C@H]([C@@H](C)C(=O)N[C@H](C)[C@@H](O)c1ccccc1)[C@@H]1CCCN1C(=O)C[C@@H](OC)[C@H](C1CCCCC1)N(C)C(=O)[C@@H](NC(=O)C(C)(C)N)C(C)C

>  <Reported value>
9.32

$$$$
>  <Compound>
CO[C@H]([C@@H](C)C(=O)N[C@@H](Cc1ccccc1)c1nccs1)[C@@H]1CCCN1C(=O)C[C@@H](OC)[C@H](C1CCCC1)N(C)C(=O)[C@@H](NC(=O)C(C)(C)N)C(C)C

>  <Reported value>
9.32

$$$$
